Measured damage (phytotoxicity) average rating, Line B, listed per entry for reference.
# Test system: sugar beet plants where the tryptophan at position 569 of the ALS enzyme is substituted by a leucine (Line B)
# TEST_DESCRIPTION: Greenhouse trial, damage (phytotoxicity) rating after ALS inhibitor treatment, Line B
# Format: in vivo, Beta vulgaris L. ssp. vulgaris
# MEASUREMENT_SETUP: day 14 after application at stage BBCH 14; scale 0% no damage to 100% completely killed; g/ha per herbicide
PROPERTY_NAME: damage (phytotoxicity) average rating, Line B (%)

COMPOUND_STRING	UNIT_INFO	REPORTED_RESULT
COc1cc(OC)n2nc(S(=O)(=O)Nc3c(Cl)ccc(C)c3Cl)nc2n1	%	40.6
COc1cc(OC)nc(Oc2cccc(Oc3nc(OC)cc(OC)n3)c2C(=O)[O-])n1.[Na+]	%	38.1
COC(=O)c1csc(C)c1S(=O)(=O)NC(=O)n1nc(OC)n(C)c1=O	%	35.6
COc1cc(OC)nc(NC(=O)NS(=O)(=O)c2cc(NC=O)ccc2C(=O)N(C)C)n1	%	45.6
COc1cc(OC)nc(NC(=O)NS(=O)(=O)N(C)S(C)(=O)=O)n1	%	37.5

====

# Tested on: sugar beet plants where the proline at position 188 of the ALS enzyme is substituted by a serine (Line C)
# TEST_DESCRIPTION: Greenhouse trial, damage (phytotoxicity) rating after ALS inhibitor treatment, Line C
# Format: in vivo, Beta vulgaris L. ssp. vulgaris
# MEASUREMENT_SETUP: day 14 after application at stage BBCH 14; scale 0% no damage to 100% completely killed; g/ha per herbicide
PROPERTY_NAME: damage (phytotoxicity) average rating, Line C (%)

COMPOUND_STRING	REPORTED_RESULT
COc1cc(OC)nc(Oc2cccc(Oc3nc(OC)cc(OC)n3)c2C(=O)[O-])n1.[Na+]	71.7
COc1cc(OC)n2nc(S(=O)(=O)Nc3c(Cl)ccc(C)c3Cl)nc2n1	69.4
COc1cc(OC)nc(NC(=O)NS(=O)(=O)c2cc(NC=O)ccc2C(=O)N(C)C)n1	77.5
COC(=O)c1csc(C)c1S(=O)(=O)NC(=O)n1nc(OC)n(C)c1=O	37.5
COc1cc(OC)nc(NC(=O)NS(=O)(=O)N(C)S(C)(=O)=O)n1	51.9

====

# Test system: sugar beet plants comprising SEQ.ID.NO:3 and SEQ.ID.NO:5 on two different alleles (Line A)
# TEST_DESCRIPTION: Greenhouse trial, damage (phytotoxicity) rating after ALS inhibitor treatment, Line A
# Type: in vivo, Beta vulgaris L. ssp. vulgaris
# MEASUREMENT_SETUP: day 14 after application at stage BBCH 14; scale 0% no damage to 100% completely killed; g/ha per herbicide
# Text: […]
PROPERTY_NAME: damage (phytotoxicity) average rating, Line A (%)

COMPOUND_STRING	REPORTED_RESULT
COc1cc(OC)nc(Oc2cccc(Oc3nc(OC)cc(OC)n3)c2C(=O)[O-])n1.[Na+]	17.5
COc1cc(OC)n2nc(S(=O)(=O)Nc3c(Cl)ccc(C)c3Cl)nc2n1	13.1
COc1cc(OC)nc(NC(=O)NS(=O)(=O)c2cc(NC=O)ccc2C(=O)N(C)C)n1	26.9
COC(=O)c1csc(C)c1S(=O)(=O)NC(=O)n1nc(OC)n(C)c1=O	8.1
